In this section, each of the compounds is paired with its reported TGI.
Tested on: UACC-257 melanoma
method: NCI tumour cell line growth inhibition, 48 h
quantity measured: TGI

compound="O=[N+]([O-])c1ccc(NC(c2ccccc2)c2ccc3cccnc3c2O)cc1 (configuration not stated)" quantity_measured=TGI reading="6.67 µM"
compound=CC(=O)Nc1ccc2c(c1)[nH]c(=O)c1cc(NC(C)=O)ccc12 quantity_measured=TGI reading="> 100 µM"
compound=O=Cc1cc2sc(C=O)cc2s1 quantity_measured=TGI reading="> 100 µM"
compound=[N-]=[N+]=NCCCn1c2c(c3ccccc3c1=O)C(=O)c1cc3c(cc1-2)OCO3 quantity_measured=TGI reading="> 100 µM"
compound=Cc1cccc(N=Nc2ccc(O)c(CN(C)C)c2)c1 quantity_measured=TGI reading="36 µM"
compound=Cc1nc2cc3[nH]c4ccccc4c(=O)c3cc2s1 quantity_measured=TGI reading="> 100 µM"
compound=CCn1c(C)nc([N+](=O)[O-])c1Sc1ncc[nH]1 quantity_measured=TGI reading="> 100 µM"
compound=O=c1[nH]c(C2CCCCC2)nc2ccc(Cl)cc12 quantity_measured=TGI reading="> 100 µM"
compound=O=C1/C(=C/c2ccc(C(=O)O)cc2)CNC/C1=C\c1ccc(C(=O)O)cc1 quantity_measured=TGI reading="> 100 µM"
compound="CCOC(=O)C1=C(C)NC(c2ccccc2)=C(C(=O)OCc2ccccc2)C1C#Cc1ccccc1 (configuration not stated)" quantity_measured=TGI reading="> 100 µM"
compound=OC[C@H](O)[C@@H](OCc1ccccc1)[C@H](NCc1ccccc1)c1cccs1 quantity_measured=TGI reading="> 100 µM"
compound="O=C(Cn1cc(I)c(C(=O)NCC(O)CO)n1)NCC(O)CO (configuration not stated)" quantity_measured=TGI reading="> 100 µM"
compound="NC(=O)C1CCCN1Cc1ccc2c(c1)OCO2 (configuration not stated)" quantity_measured=TGI reading="> 100 µM"
compound="C=C1CC2(CC(c3ccccc3C)OC(c3ccccc3C)C2)OC1=O (configuration not stated)" quantity_measured=TGI reading="3.66 µM"
compound=CCCC(CCC(=O)O)(CCC(=O)O)[N+](=O)[O-] quantity_measured=TGI reading="> 100 µM"
compound=O=C1NC(=O)/C(=C/c2ccc3nccc(-c4ccncc4)c3c2)S1 quantity_measured=TGI reading="5.22 µM"
compound="CC1O[C@@H]2CCCCC(=O)[C@]2(C)[C@H]1C (some centres not stated)" quantity_measured=TGI reading="> 100 µM"
compound="CCN1C(=O)N(CC)C2C1NN=c1s/c(=C\\c3ccc(Br)cc3)c(=O)n12 (configuration not stated)" quantity_measured=TGI reading="> 100 µM"
compound=CC(C)(C)c1cc([Si](C)(C)C)c(C#N)c([Si](C)(C)C)c1 quantity_measured=TGI reading="> 100 µM"
compound="NC1=NN(c2ccccc2)C(=O)C1/C(=N\\NC(=O)c1cc2ccccc2cc1O)C(=O)Nc1ccc(Cl)c(Cl)c1 (configuration not stated)" quantity_measured=TGI reading="84 µM"
compound="CCN1CC2(CO)CCC(OC)C34C5CC6C(OC)CC(O)(C5C6OC)C(O)(C(OC)C23)C14 (configuration not stated)" quantity_measured=TGI reading="> 375 µM"
compound=N#Cc1cc([N+](=O)[O-])ccc1NC(=O)C(=O)Nn1c(=S)[nH]c2ccccc2c1=O quantity_measured=TGI reading="> 100 µM"

Ref: PubChem BioAssay (NCI)
